Here the recorded pEC50 is given for each entry.
Biological target: CD73 (Homo sapiens (Human))
Sequence (P21589 27-574): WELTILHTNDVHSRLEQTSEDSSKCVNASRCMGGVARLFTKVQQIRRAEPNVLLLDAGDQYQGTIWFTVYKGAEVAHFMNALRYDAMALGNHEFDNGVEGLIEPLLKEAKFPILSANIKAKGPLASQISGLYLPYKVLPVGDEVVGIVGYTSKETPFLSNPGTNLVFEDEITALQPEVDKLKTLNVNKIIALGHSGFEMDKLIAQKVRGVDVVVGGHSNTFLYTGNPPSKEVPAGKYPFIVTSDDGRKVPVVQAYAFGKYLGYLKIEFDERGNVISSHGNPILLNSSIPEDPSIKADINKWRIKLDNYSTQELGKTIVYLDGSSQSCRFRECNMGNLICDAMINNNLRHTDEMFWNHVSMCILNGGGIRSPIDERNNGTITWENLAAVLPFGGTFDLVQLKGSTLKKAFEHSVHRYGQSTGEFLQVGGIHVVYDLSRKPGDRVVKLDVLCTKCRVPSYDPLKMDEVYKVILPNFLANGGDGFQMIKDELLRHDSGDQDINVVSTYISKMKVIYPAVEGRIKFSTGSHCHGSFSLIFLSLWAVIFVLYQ
Experiment: MDA-MB-231 Cell Based CD73 Activity Assay (DMEM)
Settings: MDA-MB-231-GFP cells, DMEM medium with 10% human plasma, 200 uM AMP
pEC50: −log10 of the molar value.
Measured attribute: pEC50

[[record]]
molecule = "COc1ncc(-c2cc(N3CC(OCC(F)(F)F)C(F)(F)C3)c3nccn3n2)c(OC)n1 (stereo not drawn)"
measurement = 7.99

[[record]]
molecule = "O=c1[nH]cc(-c2cc([C@H]3C[C@@H]3c3ccc4cnn(CC(F)(F)F)c4c3F)c3ncnn3n2)c(=O)[nH]1"
measurement = 10.30

[[record]]
molecule = "O=c1[nH]cc(-c2cc([C@H]3C[C@@H]3c3ncc(Br)cn3)c3nccn3n2)c(=O)[nH]1"
measurement = 7.85

[[record]]
molecule = "N#Cc1ccc(O[C@H]2CN(c3cc(-c4c[nH]c(=O)[nH]c4=O)nn4ccnc34)CC2(F)F)nc1"
measurement = 8.59

[[record]]
molecule = "N#Cc1ccc([C@H]2C[C@@H]2c2cc(-c3c[nH]c(=O)[nH]c3=O)nn3ccnc23)c(F)c1"
measurement = 8.18

[[record]]
molecule = "O=c1[nH]cc(-c2cc([C@H]3C[C@@H]3c3ccc4nc(C(F)(F)F)ccc4c3)c3nccn3n2)c(=O)[nH]1 (racemic) [Example 142]"
measurement = 8.42

[[record]]
molecule = "O=c1[nH]cc(-c2cc(OCC(F)(F)C(F)(F)F)c3nccn3n2)c(=O)[nH]1"
measurement = 7.66

[[record]]
molecule = "O=c1[nH]cc(-c2cc([C@H]3C[C@@H]3c3ccc4c(F)nn(CC(F)(F)F)c4c3)c3nccn3n2)c(=O)[nH]1"
measurement = 9.80

[[record]]
molecule = "O=c1[nH]cc(-c2cc([C@H]3C[C@@H]3c3cc(C(F)(F)F)c4ncccc4c3)c3nccn3n2)c(=O)[nH]1 (racemic) [Example 141]"
measurement = 7.61

[[record]]
molecule = "O=C1N(CC(F)(F)F)c2cc([C@H]3C[C@@H]3c3cc(-c4c[nH]c(=O)[nH]c4=O)nn4c(F)cnc34)ccc2C12CCC2"
measurement = 9.55

[[record]]
molecule = "O=C1N(CCC(F)(F)F)c2cc([C@H]3C[C@@H]3c3cc(-c4c[nH]c(=O)[nH]c4=O)nn4ccnc34)ccc2C12CC2 (racemic)"
measurement = 9.08

[[record]]
molecule = "O=c1[nH]cc(-c2cc(-c3cnn(C(F)F)c3)c3nccn3n2)c(=O)[nH]1"
measurement = 7.05

[[record]]
molecule = "O=c1[nH]cc(-c2cc([C@H]3C[C@@H]3c3cc4c(cn3)nc(C(F)(F)F)n4CC(F)(F)F)c3nccn3n2)c(=O)[nH]1 (racemic)"
measurement = 9.49

[[record]]
molecule = "CC(C)(F)C1CN(c2cc(-c3c[nH]c(=O)[nH]c3=O)nn3ccnc23)C1"
measurement = 7.42

[[record]]
molecule = "C[C@H]1CN(c2cc(-c3c[nH]c(=O)[nH]c3=O)nn3c(F)cnc23)CC1(F)F"
measurement = 7.71

[[record]]
molecule = "CC(C)NC(=O)O[C@H]1CN(c2cc(-c3c[nH]c(=O)[nH]c3=O)nc3ccnn23)CC1(F)F"
measurement = 9.41

[[record]]
molecule = "O=c1[nH]cc(-c2cc([C@H]3C[C@@H]3c3ccc4cnc(C(F)(F)F)cc4c3)c3nccn3n2)c(=O)[nH]1 [Example 133]"
measurement = 8.80

[[record]]
molecule = "O=C(NC1CN(c2cc(-c3c[nH]c(=O)[nH]c3=O)nn3ccnc23)CC1(F)F)OCC(F)F (stereo not drawn)"
measurement = 7.59

[[record]]
molecule = "O=c1[nH]cc(-c2cc(N3CCC4(COC4)C3)c3nccn3n2)c(=O)[nH]1"
measurement = 6.89

[[record]]
molecule = "O=c1[nH]cc(-c2cc([C@H]3C[C@@H]3c3ccc4nccc(OCC(F)(F)F)c4c3)c3nccn3n2)c(=O)[nH]1"
measurement = 9.40

[[record]]
molecule = "O=c1[nH]cc(-c2cc(N3CC4(CCC4)C3)c3nccn3n2)c(=O)[nH]1"
measurement = 7.53

[[record]]
molecule = "COCC1(F)CCN(c2cc(-c3c[nH]c(=O)[nH]c3=O)nn3ccnc23)C1 (stereo not drawn)"
measurement = 7.20

[[record]]
molecule = "O=c1[nH]cc(-c2cc(N3CC(F)(C(F)(F)F)C3)n3nccc3n2)c(=O)[nH]1"
measurement = 6.24

[[record]]
molecule = "O=c1[nH]cc(-c2cc(N3CC(Cc4ccc(F)cc4F)C3)c3nccn3n2)c(=O)[nH]1"
measurement = 6.60

[[record]]
molecule = "O=c1[nH]cc(-c2cc([C@H]3C[C@@H]3c3ccc4cnn(CC(F)F)c4c3)c3nccn3n2)c(=O)[nH]1 (racemic) [Example 123]"
measurement = 9.43

[[record]]
molecule = "O=c1[nH]cc(-c2cc(N3CC(F)(F)C(F)(F)C3)c3ncc(F)n3n2)c(=O)[nH]1"
measurement = 7.25

[[record]]
molecule = "O=c1[nH]cc(-c2cc(N3CCC4(CCCC4)C3)c3nccn3n2)c(=O)[nH]1"
measurement = 7.56

